assay-system: Tyrosine-protein kinase Lck (Homo sapiens)
Sequence (P06239 whole entry): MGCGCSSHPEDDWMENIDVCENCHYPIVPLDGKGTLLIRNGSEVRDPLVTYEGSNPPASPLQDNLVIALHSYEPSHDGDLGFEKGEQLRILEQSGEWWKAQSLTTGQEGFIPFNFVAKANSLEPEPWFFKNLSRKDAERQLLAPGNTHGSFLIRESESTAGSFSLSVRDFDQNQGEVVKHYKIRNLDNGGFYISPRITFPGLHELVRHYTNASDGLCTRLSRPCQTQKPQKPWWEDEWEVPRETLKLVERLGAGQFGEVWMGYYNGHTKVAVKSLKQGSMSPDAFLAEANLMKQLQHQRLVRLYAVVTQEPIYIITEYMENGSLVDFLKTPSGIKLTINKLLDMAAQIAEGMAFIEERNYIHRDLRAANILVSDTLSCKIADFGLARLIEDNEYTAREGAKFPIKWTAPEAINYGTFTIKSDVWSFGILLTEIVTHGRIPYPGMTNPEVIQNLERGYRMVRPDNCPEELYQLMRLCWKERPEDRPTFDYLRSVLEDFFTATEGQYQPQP
assay-remarks: Inhibition of p56 lck autophosphorylation, gamma-[33P]ATP incorporation
measure-name: IC50 (µM)
Write the value in µM as a bare number.

IC50 lookup needed for `COn1cc2c3c(cccc31)[C@@H]1C=C(C)CN(C)[C@@H]1C2` , thanks.
8.5
